MEASUREMENT_TARGET: fMet-Leu-Phe receptor (Homo sapiens)
ASSAY_SUMMARY: human FPR1 ligand displacement screen – cell-based, flow cytometry, SAR analysis, primary screen (AID 722)
CONDITION_PARAMETERS: FPR-expressing cells, fluorescent ligand binding inhibition, concentration not given here
Hit rate of the full screen: of about 1,300 compounds, about 40 (3%) were called active. Rule as the data show it: active = inhibition above about 30%; inactive = the rest. This is one part of a sample in which actives are shown more often than they occur.
Give one outcome, nothing more. List: YES = active, NO = inactive

Check out these entries, answers already filled in.
1) Cn1c(OCc2cccnc2)nc2c1c(=O)n(Cc1ccc(F)cc1)c(=O)n2C: NO
2) COCCN1C(=O)C(=O)/C(=C(/O)c2ccccc2)C1c1cc(OC)ccc1OC (stereo not drawn): YES
3) O=C1C(=O)N(c2cccnc2)C(c2ccccc2[N+](=O)[O-])/C1=C(/O)c1ccccc1 (stereo not drawn): NO
4) COc1ccccc1CN1C(=O)c2nccnc2C1=O: NO
5) COc1ccc(C2C(C(=O)c3ccco3)=C(O)C(=O)N2CCN2CCOCC2)cc1 (stereo not drawn): NO

Returns: the outcome recorded for COc1ccc(C2/C(=C(/O)c3ccccc3)C(=O)C(=O)N2c2ccc(C)c(Br)c2)c(OC)c1 (stereo not drawn) in this assay.
NO

Returns: the outcome recorded for COc1ccc(OC)c(NC(=O)C(C)n2sc3ccccc3c2=O)c1 (stereo not drawn) in this assay.
NO

Returns: the outcome recorded for "CCOC(=O)c1c(NC(=O)c2ccco2)sc(C)c1C" in this assay.
NO

Returns: the outcome recorded for COc1cccc(C2/C(=C(\O)c3ccc(F)cc3)C(=O)C(=O)N2Cc2cccnc2)c1 (stereo not drawn) in this assay.
NO

Returns: the outcome recorded for O=C1C(=O)N(Cc2cccnc2)C(c2ccccc2Cl)/C1=C(\O)c1ccccc1 (stereo not drawn) in this assay.
NO
